# experiment.notes: Dissolution rate test in Wood apparatus, amorphous NSF
# Type: physicochemical
# setup.conditions: pH 1.2; 150 mg tablets, 37° C., 50 rpm
Record form. Attribute: Dissolution Rate Constants. Fill in for each entry.
One number for each entry, in mg/cm^2 · min.

Example entries begin here.
1) CN(C)CC(c1ccc(O)cc1)C1(O)CCCCC1.O=C(O)c1cc(O)c(O)c(O)c1 (stereo not shown) [DSV:3,4,5-THB] = 5.4
2) CN(C)CC(c1ccc(O)cc1)C1(O)CCCCC1.O=C(O)c1cccc(O)c1 (stereo not shown) [DSV:3-HB, desvenlafaxine-3-hydroxybenzoic acid] = 5.8
3) CN(C)CC(c1ccc(O)cc1)C1(O)CCCCC1 (racemic) [DSV, reference compound] = 6.9

Please look at the following compound next.
Challenge: Report measured Dissolution Rate Constants; entry is CN(C)CC(c1ccc(O)cc1)C1(O)CCCCC1.O=C(O)c1ccc(O)c(O)c1 (stereo not shown) [Amorphous DSV:3,4-DHB, desvenlafaxine-3,4-dihydroxybenzoic acid]
Response given: 4.4
